# target-under-test: α2 -macroglobulin-trypsin complex (α2 M-Try) (Bos taurus)
# Construct: purchased SIGMA (Try); Boehringer (α2 M)
# Sequence (P00760 24-246): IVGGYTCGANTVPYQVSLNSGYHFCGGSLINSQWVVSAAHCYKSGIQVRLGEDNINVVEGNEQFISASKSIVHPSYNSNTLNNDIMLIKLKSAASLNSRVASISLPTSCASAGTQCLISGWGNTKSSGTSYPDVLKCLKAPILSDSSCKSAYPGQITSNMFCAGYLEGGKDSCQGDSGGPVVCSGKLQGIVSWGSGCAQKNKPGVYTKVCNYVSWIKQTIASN
# Sequence (Q7SIH1 24-1510 partner): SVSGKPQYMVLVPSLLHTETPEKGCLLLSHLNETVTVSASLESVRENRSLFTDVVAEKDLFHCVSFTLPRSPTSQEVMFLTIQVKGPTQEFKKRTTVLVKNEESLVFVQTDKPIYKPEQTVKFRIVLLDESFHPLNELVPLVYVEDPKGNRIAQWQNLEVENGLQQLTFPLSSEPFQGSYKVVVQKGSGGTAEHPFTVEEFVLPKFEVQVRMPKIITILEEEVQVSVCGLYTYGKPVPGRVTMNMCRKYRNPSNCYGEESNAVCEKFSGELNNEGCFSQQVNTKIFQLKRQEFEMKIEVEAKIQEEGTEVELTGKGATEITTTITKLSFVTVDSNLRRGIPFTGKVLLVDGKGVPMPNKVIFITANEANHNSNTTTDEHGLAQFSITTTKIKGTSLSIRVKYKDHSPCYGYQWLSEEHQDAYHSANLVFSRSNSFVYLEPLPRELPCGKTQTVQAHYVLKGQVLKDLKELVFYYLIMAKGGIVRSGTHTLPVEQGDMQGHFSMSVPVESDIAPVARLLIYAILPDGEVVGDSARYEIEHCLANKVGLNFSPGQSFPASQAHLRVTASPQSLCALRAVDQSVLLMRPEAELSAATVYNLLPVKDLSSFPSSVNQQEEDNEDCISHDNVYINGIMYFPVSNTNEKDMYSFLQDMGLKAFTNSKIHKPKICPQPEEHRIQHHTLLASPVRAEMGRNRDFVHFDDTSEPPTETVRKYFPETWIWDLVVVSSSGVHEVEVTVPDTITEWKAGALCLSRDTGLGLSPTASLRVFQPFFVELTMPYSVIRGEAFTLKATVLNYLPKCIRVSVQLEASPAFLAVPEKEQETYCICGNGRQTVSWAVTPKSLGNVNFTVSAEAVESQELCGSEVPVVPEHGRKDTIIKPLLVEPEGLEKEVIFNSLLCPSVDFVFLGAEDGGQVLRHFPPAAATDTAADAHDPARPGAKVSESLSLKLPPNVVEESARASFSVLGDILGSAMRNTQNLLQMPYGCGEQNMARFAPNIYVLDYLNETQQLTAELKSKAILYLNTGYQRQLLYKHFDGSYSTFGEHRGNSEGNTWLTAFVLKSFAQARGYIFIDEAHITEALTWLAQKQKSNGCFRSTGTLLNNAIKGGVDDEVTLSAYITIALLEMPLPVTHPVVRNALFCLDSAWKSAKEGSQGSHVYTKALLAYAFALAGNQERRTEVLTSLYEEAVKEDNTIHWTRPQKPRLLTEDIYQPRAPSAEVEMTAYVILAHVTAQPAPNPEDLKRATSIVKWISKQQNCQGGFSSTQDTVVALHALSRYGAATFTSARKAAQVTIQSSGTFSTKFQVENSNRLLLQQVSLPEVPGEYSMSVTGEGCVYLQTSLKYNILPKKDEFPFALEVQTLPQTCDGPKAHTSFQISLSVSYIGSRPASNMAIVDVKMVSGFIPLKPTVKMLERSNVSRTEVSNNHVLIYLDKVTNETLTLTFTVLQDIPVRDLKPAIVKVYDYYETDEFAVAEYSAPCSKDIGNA
# run-description: Relative reactivity of substrate with α2 M-Try (absorbancy at 405 nm)
# Type: biochemical, Bovine
# condition-summary: substrate 10 mM/l; α2 M-Try 1/20 dilution; Bistrispropane 100 mmol, NaCl 150 mmol, pH 8.7; 37° C. 10 minutes; absorbancy 405 nm; relative to S-2222 10 mM = 1.0
Where a name gives a salt, the structure may show the parent alone. Where a SMILES comes first, the peptide text is derived from it.
metric-name: Relative Reactivity to Enzyme (relative value of absorbance) α2 M-Try
Give bare numbers.

Some solved cases for reference:
State Relative Reactivity to Enzyme (relative value of absorbance) α2 M-Try (α2 -macroglobulin-trypsin complex (α2 M-Try) (Bos taurus)) of CC(C)[C@H](NC(=O)OCc1ccccc1)C(=O)NCC(=O)N[C@@H](CCCNC(=N)N)C(=O)Nc1ccc([N+](=O)[O-])cc1 [CHR-TRY, Z-Val-Gly-Arg-pNA-HCl, reference compound] (HELM PEPTIDE1{[O=C(OCc1ccccc1)[*:2]].V.G.R.[O=[N+]([O-])c1ccc(N[*:1])cc1]}$$$$V2.0) .
0.73

For α2 -macroglobulin-trypsin complex (α2 M-Try) (Bos taurus), give the measured Relative Reactivity to Enzyme (relative value of absorbance) α2 M-Try of the entry Cl.Cl.NC(N)=NCCC[C@H](NC(=O)CNC(=O)[C@H](N)CCC(=O)OCc1ccccc1)C(=O)Nc1ccc([N+](=O)[O-])cc1 [Substrate No. 2] (HELM PEPTIDE1{[dE].G.R.[O=[N+]([O-])c1ccc(N[*:1])cc1]}|CHEM1{[c1ccc(CO[*:1])cc1]}$PEPTIDE1,CHEM1,1:R3-1:R1$$$V2.0)
1.01

Lab note: α2 -macroglobulin-trypsin complex (α2 M-Try) (Bos taurus) assay, enter Relative Reactivity to Enzyme (relative value of absorbance) α2 M-Try for CC(C)OC(=O)CC[C@@H](N)C(=O)NCC(=O)N[C@@H](CCCN=C(N)N)C(=O)Nc1ccc([N+](=O)[O-])cc1.Cl.Cl [Substrate No. 3] (HELM PEPTIDE1{[dE].G.R.[O=[N+]([O-])c1ccc(N[*:1])cc1]}|CHEM1{[CC(C)O[*:1]]}$PEPTIDE1,CHEM1,1:R3-1:R1$$$V2.0) here
1.20

State, for α2 -macroglobulin-trypsin complex (α2 M-Try) (Bos taurus), measured Relative Reactivity to Enzyme (relative value of absorbance) α2 M-Try of the molecule listed here: CCCN(CCC)C(=O)CC[C@@H](N)C(=O)NCC(=O)N[C@@H](CCCN=C(N)N)C(=O)Nc1ccc([N+](=O)[O-])cc1.Cl.Cl [Substrate No. 21]
1.46

For the next question, use this molecule.
Report measured Relative Reactivity to Enzyme (relative value of absorbance) α2 M-Try on α2 -macroglobulin-trypsin complex (α2 M-Try) (Bos taurus); entry: Cl.Cl.NC(N)=NCCC[C@H](NC(=O)[C@@H]1CCCCN1C(=O)[C@H](N)Cc1ccccc1)C(=O)Nc1ccc([N+](=O)[O-])cc1 [S-2238, HDPhePipArgpNA.2HCl, reference compound]
0.68
